# Tested on: DU-145
# Assay info: NCI tumour cell line growth inhibition, 48 h
Calls of active or inactive are those of the source. No stated cut-off is given here; in the data, active = GI50 up to about 1.1 µM and inactive = higher.
Reported GI50 values for the following compounds.

Consider the following illustrative entries.
CN1C(=O)CC2CCCN2C1=O (centres undefined) ... > 100 µM (inactive)
CCOC(=O)C(C(N)=O)C1=Nc2cc([N+](=O)[O-])ccc2N/C1=C\C(=O)c1ccc(C)cc1 (centres undefined) ... 32.6 µM (inactive)
Nc1c(/C=C/c2cc3cc(C4=NCCN4)ccc3o2)[nH]c2cc(C3=NCCN3)ccc12 ... 36.1 µM (inactive)

Ask | Any idea what its GI50 is? The compound is CCCCc1c2c(nc3c1CCCC3O)CCCC2 (centres undefined)
Reply | > 100 µM (inactive)

Ask | # get_value(readout='GI50', item= `Clc1ccc(-c2noc(CN3CCCCC3)n2)cc1` )
Reply | > 100 µM (inactive)

Ask | Please give the measured GI50 for this compound: `O=C1[C@H](O)[C@@H]2CCC[C@@]23CCCN13`
Reply | > 100 µM (inactive)

Ask | Fill in the blank: the reported GI50 of CCOC(=O)C1C(c2ccc(OC)cc2)c2c(n[nH]c2O)CC1(O)OCC (centres undefined) is ____.
Reply | > 100 µM (inactive)

Ask | Name the reported GI50 value associated with the compound `Cn1c(=O)cc(NNc2ccc(Br)cc2)[nH]c1=O`
Reply | 6.55 µM (inactive)

Ask | For the compound shown here, `COc1cccc(-c2nc(O)c3ccccc3n2)c1OC` , give the reported GI50.
Reply | > 100 µM (inactive)
